sequences and their reported phosphorylation enrichment
# Test system: c-Abl (mouse)
# Measurement description: phosphorylation enrichment, bacterial display (enrichment ratio); higher = better substrate or ligand; peptides without Tyr show the background;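 also: 11-residue human phosphosite peptides and single-mutation variants displayed on the E. coli surface, counted by deep sequencing, each peptide's frequency after selection divided by its frequency in the unselected input library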;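 also: frequency after pTyr selection over input frequency; kinase dosed for 20-30% of maximal phosphorylation in three min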
Kindly provide the number alone.

# annotated cases, reported phosphorylation enrichment shown
Sequence code: DGFTDYAEFAK [MCFD2_Y138_I136T_YF]
phosphorylation enrichment: 0.811
//
Sequence code: RSSGGYEPRGC [FUS_Y239_R244C]
phosphorylation enrichment: 0.539
//
Sequence code: KGEPQYSSHSS [SIPA1L3_Y1265]
phosphorylation enrichment: 0.498
//
Sequence code: HNELYYEEAEH [VANGL1_Y345]
phosphorylation enrichment: 0.936

Consider now this further sequence.
Ask: Record request: phosphorylation enrichment value, item HKANEYYPVVI [ADAMTS18_Y764_L769I]
Result: 0.61

====

# Target desc: EPHB2 (UniProt P29323)
# Sequence (P29323 whole entry, looked up): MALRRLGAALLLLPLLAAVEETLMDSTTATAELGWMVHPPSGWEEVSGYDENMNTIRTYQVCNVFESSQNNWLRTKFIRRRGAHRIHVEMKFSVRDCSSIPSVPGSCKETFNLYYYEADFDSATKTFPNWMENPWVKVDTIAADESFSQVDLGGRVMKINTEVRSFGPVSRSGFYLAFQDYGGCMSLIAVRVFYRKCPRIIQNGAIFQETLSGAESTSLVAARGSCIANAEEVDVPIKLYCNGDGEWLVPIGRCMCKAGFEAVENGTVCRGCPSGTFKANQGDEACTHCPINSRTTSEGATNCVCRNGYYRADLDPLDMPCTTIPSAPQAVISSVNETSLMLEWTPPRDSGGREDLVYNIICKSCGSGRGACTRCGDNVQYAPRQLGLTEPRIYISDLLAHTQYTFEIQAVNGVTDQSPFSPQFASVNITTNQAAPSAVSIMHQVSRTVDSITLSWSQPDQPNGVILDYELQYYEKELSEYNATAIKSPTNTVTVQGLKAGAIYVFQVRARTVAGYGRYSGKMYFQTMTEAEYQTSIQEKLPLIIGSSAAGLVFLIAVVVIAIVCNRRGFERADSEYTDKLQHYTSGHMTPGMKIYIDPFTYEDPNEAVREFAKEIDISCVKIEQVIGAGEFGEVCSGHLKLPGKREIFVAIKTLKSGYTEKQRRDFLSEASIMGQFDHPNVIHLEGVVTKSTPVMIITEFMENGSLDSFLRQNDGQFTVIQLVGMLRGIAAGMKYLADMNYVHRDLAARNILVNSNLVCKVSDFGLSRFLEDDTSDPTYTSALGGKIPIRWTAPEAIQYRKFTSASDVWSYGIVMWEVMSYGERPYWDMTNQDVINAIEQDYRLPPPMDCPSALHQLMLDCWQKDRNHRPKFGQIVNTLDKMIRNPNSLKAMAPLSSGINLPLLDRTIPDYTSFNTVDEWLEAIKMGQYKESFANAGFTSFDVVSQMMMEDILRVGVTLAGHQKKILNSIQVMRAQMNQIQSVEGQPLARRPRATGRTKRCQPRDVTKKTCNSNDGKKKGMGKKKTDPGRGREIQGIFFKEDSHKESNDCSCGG
# Measurement description: phosphorylation enrichment, bacterial display (enrichment ratio); higher = better substrate or ligand; peptides without Tyr show the background
Could you label it MET if measured phosphorylation enrichment is 0.5 or higher, and NOT MET otherwise?

The following sequences have reported results that may help.
Sequence code: FLNSSYINIST [IL23R_Y178_T175N_YF]
Target desc: EPHB2 (UniProt P29323)
Class assignment: NOT MET
--
Sequence code: GVIKEYQIRQV [USH2A_Y3623]
Target desc: EPHB2 (UniProt P29323)
Class assignment: NOT MET

Ask: For this sequence, is measured phosphorylation enrichment 0.5 or higher? GHPFAYDWISI [BEST1_Y227_L224P_YF]
Result: MET

====

# Target desc: FGFR3 (UniProt P22607)
# Sequence (P22607 whole entry, looked up): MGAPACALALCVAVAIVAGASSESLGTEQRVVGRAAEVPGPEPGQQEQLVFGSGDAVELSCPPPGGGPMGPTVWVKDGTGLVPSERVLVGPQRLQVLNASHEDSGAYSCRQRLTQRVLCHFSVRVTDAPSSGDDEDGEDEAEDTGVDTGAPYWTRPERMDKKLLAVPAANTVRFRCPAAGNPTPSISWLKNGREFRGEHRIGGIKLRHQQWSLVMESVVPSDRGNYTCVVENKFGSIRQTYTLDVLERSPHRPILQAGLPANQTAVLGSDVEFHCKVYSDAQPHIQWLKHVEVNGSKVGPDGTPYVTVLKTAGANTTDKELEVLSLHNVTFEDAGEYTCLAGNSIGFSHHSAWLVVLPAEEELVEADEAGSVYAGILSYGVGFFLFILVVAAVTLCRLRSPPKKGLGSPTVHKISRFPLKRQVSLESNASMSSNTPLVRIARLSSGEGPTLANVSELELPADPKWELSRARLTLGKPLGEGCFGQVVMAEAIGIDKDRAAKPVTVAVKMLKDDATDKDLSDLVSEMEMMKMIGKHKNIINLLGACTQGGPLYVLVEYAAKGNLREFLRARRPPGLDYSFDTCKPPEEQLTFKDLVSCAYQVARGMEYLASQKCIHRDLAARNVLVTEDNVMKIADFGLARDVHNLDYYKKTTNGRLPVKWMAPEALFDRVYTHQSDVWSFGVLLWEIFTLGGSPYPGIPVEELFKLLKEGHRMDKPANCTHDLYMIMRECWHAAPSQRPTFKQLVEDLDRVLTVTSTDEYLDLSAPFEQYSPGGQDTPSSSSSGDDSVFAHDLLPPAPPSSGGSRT
# Measurement description: phosphorylation enrichment, bacterial display (enrichment ratio); higher = better substrate or ligand; peptides without Tyr show the background
sequences and their reported phosphorylation enrichment
Kindly provide the number alone.

# annotated cases, reported phosphorylation enrichment shown
Sequence code: VDSGVYAVPPP [BCAR1_Y410]
Target desc: FGFR3 (UniProt P22607)
phosphorylation enrichment: 1.01

Sequence code: LNERHYGGLTG [PGAM2_Y92]
Target desc: FGFR3 (UniProt P22607)
phosphorylation enrichment: 0.552

Sequence code: CDLTDYLMKIL [ACTA1_Y190_R185C]
Target desc: FGFR3 (UniProt P22607)
phosphorylation enrichment: 1.02

Sequence code: YQQLFYLLQIN [IQGAP2_Y890_T894I]
Target desc: FGFR3 (UniProt P22607)
phosphorylation enrichment: 2.15

Sequence code: MGCVNYGAYIN [GLB1_Y485_R482C]
Target desc: FGFR3 (UniProt P22607)
phosphorylation enrichment: 0.851

Sequence code: FEEVVYQAMEE [TACC3_Y684]
Target desc: FGFR3 (UniProt P22607)
phosphorylation enrichment: 0.955

Sequence code: WSRAMYPDLGP [STARD8_Y330]
Target desc: FGFR3 (UniProt P22607)
phosphorylation enrichment: 0.575

Sequence code: AELVRYYMEHH [PTPN11_Y80_Q79R]
Target desc: FGFR3 (UniProt P22607)
phosphorylation enrichment: 0.673

Ask: Record request: phosphorylation enrichment value, item RKPDIYERLAS [MCM4_Y459]
Result: 0.798

Ask: Proceed to ANNPLYKEVTS [ITGB3_Y773_A776V]
Result: 0.58

Ask: Proceed to KPVDTYFDSTR [DYNC2H1_Y2230_M2227V_YF]
Result: 0.73

Ask: Proceed to FSQETYYRVSN [ABCD1_Y180_Q178E]
Result: 3.85

Ask: Proceed to TFEYRYLEDQD [CNOT3_Y746_R750Q]
Result: 0.823

Ask: Proceed to NQILPYIEELV [PPP2R1B_Y341_K343E]
Result: 0.781

====

# Target desc: FGFR1 (UniProt P11362)
# Sequence (P11362 whole entry, looked up): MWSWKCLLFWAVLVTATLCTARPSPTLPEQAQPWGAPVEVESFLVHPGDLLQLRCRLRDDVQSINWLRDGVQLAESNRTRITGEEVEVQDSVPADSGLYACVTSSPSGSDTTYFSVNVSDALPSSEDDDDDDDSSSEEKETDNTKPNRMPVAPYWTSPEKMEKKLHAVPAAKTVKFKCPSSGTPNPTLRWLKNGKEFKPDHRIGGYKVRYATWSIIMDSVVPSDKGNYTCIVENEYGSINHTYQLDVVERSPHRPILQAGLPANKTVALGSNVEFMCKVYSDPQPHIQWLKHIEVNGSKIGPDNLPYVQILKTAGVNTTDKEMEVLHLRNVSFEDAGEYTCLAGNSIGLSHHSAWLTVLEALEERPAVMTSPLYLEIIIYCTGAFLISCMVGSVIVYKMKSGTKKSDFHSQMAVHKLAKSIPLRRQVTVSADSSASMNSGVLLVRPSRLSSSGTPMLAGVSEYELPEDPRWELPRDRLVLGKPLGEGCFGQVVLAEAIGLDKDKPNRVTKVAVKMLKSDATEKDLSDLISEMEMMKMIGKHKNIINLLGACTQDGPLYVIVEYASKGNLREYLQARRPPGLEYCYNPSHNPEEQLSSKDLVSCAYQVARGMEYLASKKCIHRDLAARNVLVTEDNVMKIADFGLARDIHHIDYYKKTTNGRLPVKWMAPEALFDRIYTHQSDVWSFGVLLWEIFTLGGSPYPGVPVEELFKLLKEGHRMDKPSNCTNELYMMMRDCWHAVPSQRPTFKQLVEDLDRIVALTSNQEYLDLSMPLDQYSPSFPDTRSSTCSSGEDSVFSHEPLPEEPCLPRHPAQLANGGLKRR
# Measurement description: phosphorylation enrichment, bacterial display (enrichment ratio); higher = better substrate or ligand; peptides without Tyr show the background
sequences and their reported phosphorylation enrichment
Kindly provide the number alone.

Ask: Record request: phosphorylation enrichment value, item MARDISRASFF [ALK_Y1278_Y1278S_YF]
Result: 0.41

Ask: Proceed to FGGLRYGFGGL [KRTAP20-2_Y13_V17G_YF]
Result: 0.672

Ask: Proceed to YQLENCCNGGG [INS_Y108_Y108C]
Result: 0.547

Ask: Proceed to RGEAVYSRDCV [XPC_Y676]
Result: 0.718

Ask: Proceed to SSNLFYRWLTA [CNGA3_Y169_YF]
Result: 0.621

Ask: Proceed to ATPKGYELDAS [OTC_Y223_P225L]
Result: 0.466

Ask: Proceed to FDKEFYSVHNK [MET_Y1235_YF]
Result: 0.528

Ask: Proceed to FFRDGHMPRQF [GSS_Y270_Y270H_YF]
Result: 0.392

====

# Target desc: MERTK (UniProt Q12866)
# Sequence (Q12866 whole entry, looked up): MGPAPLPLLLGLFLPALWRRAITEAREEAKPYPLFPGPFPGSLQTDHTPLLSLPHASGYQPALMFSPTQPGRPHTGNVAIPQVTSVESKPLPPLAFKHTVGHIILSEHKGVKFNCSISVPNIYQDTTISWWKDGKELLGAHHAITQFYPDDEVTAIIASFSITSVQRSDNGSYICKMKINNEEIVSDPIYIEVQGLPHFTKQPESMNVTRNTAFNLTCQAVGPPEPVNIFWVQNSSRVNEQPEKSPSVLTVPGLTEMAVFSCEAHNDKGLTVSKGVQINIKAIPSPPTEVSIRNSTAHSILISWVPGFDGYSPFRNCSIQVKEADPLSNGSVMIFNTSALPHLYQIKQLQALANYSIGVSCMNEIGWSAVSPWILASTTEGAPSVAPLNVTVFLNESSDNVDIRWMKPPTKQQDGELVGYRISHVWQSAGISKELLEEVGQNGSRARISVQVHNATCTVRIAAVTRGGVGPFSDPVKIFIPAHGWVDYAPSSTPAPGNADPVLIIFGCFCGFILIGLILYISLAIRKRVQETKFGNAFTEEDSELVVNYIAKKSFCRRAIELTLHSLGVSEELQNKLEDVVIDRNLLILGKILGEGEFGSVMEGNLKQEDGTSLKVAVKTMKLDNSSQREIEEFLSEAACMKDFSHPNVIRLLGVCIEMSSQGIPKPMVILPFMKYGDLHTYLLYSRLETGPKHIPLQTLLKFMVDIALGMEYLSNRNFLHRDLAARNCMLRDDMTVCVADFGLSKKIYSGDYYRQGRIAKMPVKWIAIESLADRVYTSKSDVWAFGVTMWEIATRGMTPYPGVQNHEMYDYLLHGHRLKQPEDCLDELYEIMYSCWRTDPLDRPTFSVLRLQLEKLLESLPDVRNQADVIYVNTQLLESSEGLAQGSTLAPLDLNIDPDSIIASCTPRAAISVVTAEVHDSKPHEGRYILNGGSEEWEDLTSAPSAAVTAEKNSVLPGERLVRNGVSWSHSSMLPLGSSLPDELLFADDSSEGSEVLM
# Measurement description: phosphorylation enrichment, bacterial display (enrichment ratio); higher = better substrate or ligand; peptides without Tyr show the background
sequences and their reported phosphorylation enrichment

# annotated cases, reported phosphorylation enrichment shown
Sequence code: CDLTDYLMKIL [ACTA1_Y190_R185C]
phosphorylation enrichment: 0.416

Sequence code: QTSTDYDIRFY [CSNK2A1_Y131_L128S]
phosphorylation enrichment: 0.869

Ask: Record request: phosphorylation enrichment value, item ESKAGYRVPRS [CLDN7_Y195]
Result: 0.339

Ask: Proceed to IHFPPYTDWNQ [ALDH3B2_Y365_YF]
Result: 0.431

====

# Target desc: MERTK (UniProt Q12866)
# Measurement description: phosphorylation enrichment, bacterial display (enrichment ratio); higher = better substrate or ligand; peptides without Tyr show the background
Could you label it Satisfied if measured phosphorylation enrichment is 0.5 or higher, and Not satisfied otherwise?

Sequence code: LGRTRYQDVTG [MIPEP_Y510_H512D]
Class assignment: Satisfied

Sequence code: KVASVYEAPGF [NT5C_Y65]
Class assignment: Satisfied

Sequence code: RIDPDYMGRVR [IGSF9_Y81_V82M]
Class assignment: Not satisfied

Ask: For this sequence, is measured phosphorylation enrichment 0.5 or higher? RARPPYTVAAD [ANKZF1_Y572]
Result: Not satisfied

Ask: Proceed to EDDIIYTQDFM [STK11_Y362_T367M]
Result: Satisfied

Ask: Proceed to QCTSAHPLQPE [NANS_Y188_Y188H]
Result: Not satisfied

Ask: Proceed to DSFWSYCNAVA [SLC20A2_Y436_S434W_YF]
Result: Not satisfied

Ask: Proceed to SFCFRYRCAPR [SUMF1_Y344_A348P_YF]
Result: Satisfied

Ask: Proceed to LLVVLCKFRCF [PSEN1_Y154_Y154C_YF]
Result: Satisfied

====

sequences and their reported phosphorylation enrichment
# Target desc: Fes (UniProt P07332)
# Sequence (P07332 whole entry, looked up): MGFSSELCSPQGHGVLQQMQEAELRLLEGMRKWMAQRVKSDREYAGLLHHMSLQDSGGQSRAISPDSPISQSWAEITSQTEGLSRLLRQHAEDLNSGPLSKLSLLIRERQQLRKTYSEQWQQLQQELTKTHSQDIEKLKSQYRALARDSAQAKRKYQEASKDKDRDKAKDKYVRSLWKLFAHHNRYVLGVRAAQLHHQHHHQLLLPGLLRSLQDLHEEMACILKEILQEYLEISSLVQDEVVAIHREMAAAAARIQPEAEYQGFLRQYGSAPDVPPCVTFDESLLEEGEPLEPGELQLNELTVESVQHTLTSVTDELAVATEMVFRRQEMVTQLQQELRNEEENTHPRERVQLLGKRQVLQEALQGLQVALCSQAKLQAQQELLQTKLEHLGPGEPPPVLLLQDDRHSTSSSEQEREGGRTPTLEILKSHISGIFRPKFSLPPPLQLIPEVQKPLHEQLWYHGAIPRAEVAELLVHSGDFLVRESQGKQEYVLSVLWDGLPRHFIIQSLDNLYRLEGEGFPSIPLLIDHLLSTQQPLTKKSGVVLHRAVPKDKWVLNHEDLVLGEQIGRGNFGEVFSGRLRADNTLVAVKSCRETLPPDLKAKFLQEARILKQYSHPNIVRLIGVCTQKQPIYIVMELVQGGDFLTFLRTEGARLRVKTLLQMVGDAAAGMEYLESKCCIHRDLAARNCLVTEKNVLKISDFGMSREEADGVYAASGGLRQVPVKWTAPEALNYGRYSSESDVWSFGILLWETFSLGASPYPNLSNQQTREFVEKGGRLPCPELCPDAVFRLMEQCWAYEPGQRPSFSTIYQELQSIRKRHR
# Measurement description: phosphorylation enrichment, bacterial display (enrichment ratio); higher = better substrate or ligand; peptides without Tyr show the background
Kindly provide the number alone.

# annotated cases, reported phosphorylation enrichment shown
Sequence code: NGVSFYINLCQ [IGF2R_Y2025_YF]
Target desc: Fes (UniProt P07332)
Observed measurement: 2
//
Sequence code: WFQTKYEELQI [KRT6B_Y360_YF]
Target desc: Fes (UniProt P07332)
Observed measurement: 0.981
//
Sequence code: FSQQTYYPVSN [ABCD1_Y180_R182P]
Target desc: Fes (UniProt P07332)
Observed measurement: 0.647
//
Sequence code: HVIKLYGACSQ [RET_Y791]
Target desc: Fes (UniProt P07332)
Observed measurement: 1.58

Ask: Record request: phosphorylation enrichment value, item EEVKAYLDFRE [CHAC2_Y78]
Result: 1.44

Ask: Proceed to EPAVLYNLKDR [MYH7_Y103]
Result: 0.835

Ask: Proceed to KPVDTYFDSTR [DYNC2H1_Y2230_M2227V_YF]
Result: 0.997

====

# Target desc: Hck (UniProt P08631)
# Sequence (P08631 whole entry, looked up): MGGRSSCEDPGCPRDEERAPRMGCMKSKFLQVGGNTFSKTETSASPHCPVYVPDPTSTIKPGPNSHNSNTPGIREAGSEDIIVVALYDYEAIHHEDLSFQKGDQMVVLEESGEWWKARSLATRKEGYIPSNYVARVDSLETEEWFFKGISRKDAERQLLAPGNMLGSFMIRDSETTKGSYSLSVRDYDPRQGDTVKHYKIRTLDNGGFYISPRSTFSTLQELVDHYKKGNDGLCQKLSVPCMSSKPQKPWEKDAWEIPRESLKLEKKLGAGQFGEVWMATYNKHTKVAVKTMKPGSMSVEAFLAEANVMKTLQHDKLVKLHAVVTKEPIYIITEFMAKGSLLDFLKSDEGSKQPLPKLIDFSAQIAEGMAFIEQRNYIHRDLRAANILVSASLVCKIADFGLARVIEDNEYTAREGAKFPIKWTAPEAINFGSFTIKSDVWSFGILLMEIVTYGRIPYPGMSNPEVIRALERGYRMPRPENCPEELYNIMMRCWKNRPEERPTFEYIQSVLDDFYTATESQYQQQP
# Measurement description: phosphorylation enrichment, bacterial display (enrichment ratio); higher = better substrate or ligand; peptides without Tyr show the background
sequences and their reported phosphorylation enrichment
Kindly provide the number alone.

# annotated cases, reported phosphorylation enrichment shown
Sequence code: FGMSTYITRED [FNDC3B_Y180_YF]
Target desc: Hck (UniProt P08631)
Observed measurement: 0.743
--
Sequence code: FKDFFYCWNTF [AICDA_Y146_YF]
Target desc: Hck (UniProt P08631)
Observed measurement: 0.624
--
Sequence code: EAGKVYLKAAM [CBFB_Y96_P100A]
Target desc: Hck (UniProt P08631)
Observed measurement: 0.494
--
Sequence code: GESQGYDIMEA [MSH2_Y863_P868A]
Target desc: Hck (UniProt P08631)
Observed measurement: 0.492
--
Sequence code: IRRQGYSHRIL [MYO3B_Y993]
Target desc: Hck (UniProt P08631)
Observed measurement: 0.419
--
Sequence code: FHLLPYTIRAM [PARS2_Y93_V95I_YF]
Target desc: Hck (UniProt P08631)
Observed measurement: 0.541

Ask: Record request: phosphorylation enrichment value, item LTSVKYLLSAT [GSDMC_Y26_P23S]
Result: 0.466
